Values compiled from ChEMBL document CHEMBL1156988.

Tested on: Enterococcus faecium
Assay: Antibacterial activity against vancomycin-resistant Enterococcus faecium 987 after overnight incubation
Conditions: Enterococcus faecium, 987; read-out: MIC
endpoint: log10 MIC (log10 of the value in µg/mL)
Each number you see is log10 of MIC, and the unit inside the log is µg/mL.

Look over these answered cases.
compound	assayedTarget	endpoint	assayValue
C=CCOc1ccc2ccccc2c1-c1c(OCC(=O)N[C@H](CC=C)C(=O)N[C@H](CCCNC(=N)N)C(=O)N[C@@H](CC=C)C(=O)OCc2ccccc2)ccc2ccccc12.Cl	Enterococcus faecium	log10 MIC	2.10
C=CCOc1ccc2ccccc2c1-c1c(OCC(=O)N[C@H](CC(C)C)C(=O)N[C@H](CCCNC(=N)N)C(=O)N[C@@H](C)C(=O)OCc2ccccc2)ccc2ccccc12.Cl	Enterococcus faecium	log10 MIC	1.80

Please state log10 MIC for every compound in the list that follows.
1. C=CCOc1ccc2ccccc2c1-c1c(OCC(=O)N[C@H](CCCCN)C(=O)N[C@H](CCCNC(=N)N)C(=O)N[C@@H](CC(C)C)C(=O)OCc2ccccc2)ccc2ccccc12.Cl.Cl
2. CC(C)CCOc1ccc2ccccc2c1-c1c(OCC(=O)N[C@H](CCCCN)C(=O)N[C@H](CCNC(=N)N)C(=O)N[C@@H](CC(C)C)C(=O)OCc2ccccc2)ccc2ccccc12.Cl.Cl
3. CN[C@H](CC(C)C)C(=O)N[C@H]1C(=O)N[C@@H](CC(N)=O)C(=O)N[C@H]2C(=O)N[C@H]3C(=O)N[C@H](C(=O)N[C@H](C(=O)O)c4cc(O)cc(O)c4-c4cc3ccc4O)[C@H](O)c3ccc(c(Cl)c3)Oc3cc2cc(c3O[C@@H]2O[C@H](CO)[C@@H](O)[C@H](O)[C@H]2O[C@H]2C[C@](C)(N)[C@H](O)[C@H](C)O2)Oc2ccc(cc2Cl)[C@H]1O
4. C=CCOc1ccc2ccccc2c1-c1c(OCC(=O)N[C@H](CCCCN)C(=O)N[C@H](CCCNC(=N)N)C(=O)N[C@H](CC=C)C(=O)OCc2ccccc2)ccc2ccccc12.Cl.Cl
5. CNC(=N)NCCC[C@@H](NC(=O)[C@@H](CCCCN)NC(=O)COc1ccc2ccccc2c1-c1c(OCCC(C)C)ccc2ccccc12)C(=O)N[C@@H](CC(C)C)C(=O)OCc1ccccc1.Cl.Cl

Reply text:
1: 1.50; 2: 1.72; 3: 0.50; 4: 2.10; 5: 1.40
